Reported %-inhibition of FYN values for a set of molecules
target: panel of more than 300 wild-type and mutant kinases (313 kinase panel) (Homo sapiens); experiment: Kinase profiling in a biochemical assay panel (mobility shift assays and ELISA), %-inhibition at 1 μM; selectivity entropy; conditions: kinase FYN; compound at 1 μM
Sequence (P06241 whole entry, change not shown): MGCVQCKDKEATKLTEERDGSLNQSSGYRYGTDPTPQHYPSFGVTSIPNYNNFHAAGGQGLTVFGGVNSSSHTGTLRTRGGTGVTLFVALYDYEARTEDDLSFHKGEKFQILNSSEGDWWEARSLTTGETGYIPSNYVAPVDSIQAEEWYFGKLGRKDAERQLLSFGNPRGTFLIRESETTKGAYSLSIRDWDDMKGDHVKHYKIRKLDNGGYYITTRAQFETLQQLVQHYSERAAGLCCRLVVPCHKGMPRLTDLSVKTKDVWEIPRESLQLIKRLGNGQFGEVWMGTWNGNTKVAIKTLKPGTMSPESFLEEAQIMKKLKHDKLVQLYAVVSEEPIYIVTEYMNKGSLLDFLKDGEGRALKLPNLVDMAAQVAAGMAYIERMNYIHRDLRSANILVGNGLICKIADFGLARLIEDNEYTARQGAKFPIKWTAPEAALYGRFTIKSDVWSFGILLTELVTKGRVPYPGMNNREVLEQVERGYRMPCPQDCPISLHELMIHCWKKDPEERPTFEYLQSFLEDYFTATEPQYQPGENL
Your answer is read as %, so omit the unit and give the number.

Field: example entries. Status: answers known.
Answer with the recorded %-inhibition of FYN for the molecule listed here: COc1cc(Nc2c(C#N)cnc3cc(OCCCN4CCN(C)CC4)c(OC)cc23)c(Cl)cc1Cl [bosutinib]
95

Identify %-inhibition of FYN associated with the molecule C[C@@H](Oc1cc(-c2cnn(C3CCNCC3)c2)cnc1N)c1c(Cl)ccc(F)c1Cl [crizotinib]
42

Return value of %-inhibition of FYN for input CC(=O)Nc1cccc(-n2c(=O)n(C3CC3)c(=O)c3c(Nc4ccc(I)cc4F)n(C)c(=O)c(C)c32)c1 [trametinib] , no commentary.
9

Using the record for CO[C@H]1C[C@@H]2CC[C@@H](C)[C@@](O)(O2)C(=O)C(=O)N2CCCC[C@H]2C(=O)O[C@H]([C@H](C)C[C@@H]2CC[C@@H](OCCO)[C@H](OC)C2)CC(=O)[C@H](C)/C=C(\C)[C@@H](O)[C@@H](OC)C(=O)[C@H](C)C[C@H](C)/C=C/C=C/C=C/1C [everolimus] , state its measured %-inhibition of FYN.
-0.928

Kindly indicate its recorded %-inhibition of FYN. Item: Cc1nc(Nc2ncc(C(=O)Nc3c(C)cccc3Cl)s2)cc(N2CCN(CCO)CC2)n1 [dasatinib]
100

Alright, here's another molecule for you.
Name the recorded %-inhibition of FYN of the item COc1cc2nccc(Oc3ccc(NC(=O)C4(C(=O)Nc5ccc(F)cc5)CC4)cc3)c2cc1OC [cabozantinib] in your answer.
91
